- EXPERIMENT_NOTES: Plasma PK after a single 1-h IV infusion of [^14C]-pevonedistat 25 mg/m^2 (part A)
- Format: in vivo, human
- PARTICULARS: human; plasma; single 1-h IV infusion 25 mg/m^2; geometric mean (CV); N = 7
ASSAY_READOUT: AUC(0-t) (ng·h/mL)
Return type: number; implicit unit ng·h/mL.

Reported AUC(0-t) ( NS(=O)(=O)OC[C@@H]1C[C@@H](n2ccc3c(N[C@H]4CCc5ccccc54)ncnc32)C[C@@H]1O ) = 1410

###

- EXPERIMENT_NOTES: Plasma PK after a single 1-h IV infusion of [^14C]-pevonedistat 25 mg/m^2 (part A)
- Format: in vivo, human
- PARTICULARS: human; plasma; single 1-h IV infusion 25 mg/m^2; geometric mean (CV); N = 7; read-out: Vss
ASSAY_READOUT: Vd (L)
Return type: number; implicit unit L.

Reported Vd ( NS(=O)(=O)OC[C@@H]1C[C@@H](n2ccc3c(N[C@H]4CCc5ccccc54)ncnc32)C[C@@H]1O ) = 296

###

- EXPERIMENT_NOTES: Whole blood PK and whole blood/plasma partitioning after a single 1-h IV infusion of [^14C]-pevonedistat 25 mg/m^2 (part A)
- Format: in vivo, human
- PARTICULARS: human, whole blood and plasma, iv, 25 mg/m^2, single 1-h IV infusion 25 mg/m^2; mean (SD); N = 7; read-out: Whole blood/plasma AUClast ratio
ASSAY_READOUT: blood plasma ratio
Response field accepts a number only; no unit should be typed.

Reported blood plasma ratio ( NS(=O)(=O)OC[C@@H]1C[C@@H](n2ccc3c(N[C@H]4CCc5ccccc54)ncnc32)C[C@@H]1O ) = 42.2

###

- EXPERIMENT_NOTES: Plasma PK after a single 1-h IV infusion of [^14C]-pevonedistat 25 mg/m^2 (part A)
- Type: in vivo, human
- PARTICULARS: human; plasma; single 1-h IV infusion 25 mg/m^2; geometric mean (CV); N = 7
- Protocol: This was a two-part (A and B), open-label, multicenter, mass balance, distribution, metabolism, excretion (DME) study in adult patients with advanced solid tumors. […] Complete urinary and fecal output were collected for analysis of PK (urine) and total radioactivity (urine and feces) throughout the confinement period until discharge criteria were met. […] 160 All samples were analyzed applying the methods described below: […]
ASSAY_READOUT: AUC(0-inf)
// return the numeric value with its unit appended

Reported AUC(0-inf) ( NS(=O)(=O)OC[C@@H]1C[C@@H](n2ccc3c(N[C@H]4CCc5ccccc54)ncnc32)C[C@@H]1O ) = 1460 ng·h/mL

###

- EXPERIMENT_NOTES: Plasma PK after a single 1-h IV infusion of [^14C]-pevonedistat 25 mg/m^2 (part A)
- Format: in vivo, human
- PARTICULARS: human; plasma; single 1-h IV infusion 25 mg/m^2; mean (SD); N = 7
ASSAY_READOUT: half-life (h)
Return type: number; implicit unit h.

Reported half-life ( NS(=O)(=O)OC[C@@H]1C[C@@H](n2ccc3c(N[C@H]4CCc5ccccc54)ncnc32)C[C@@H]1O [Pevonedistat] ) = 8.4

###

- EXPERIMENT_NOTES: Plasma PK after a single 1-h IV infusion of [^14C]-pevonedistat 25 mg/m^2 (part A)
- Type: in vivo, human
- PARTICULARS: human; plasma; single 1-h IV infusion 25 mg/m^2; geometric mean (CV); N = 7
ASSAY_READOUT: Cmax (ng/mL)
Return type: number; implicit unit ng/mL.

Reported Cmax ( NS(=O)(=O)OC[C@@H]1C[C@@H](n2ccc3c(N[C@H]4CCc5ccccc54)ncnc32)C[C@@H]1O [Pevonedistat] ) = 218

Data provenance is paper PMC7960626.
